- Tested on: Escherichia coli TOP10
- procedure.details: shrunken log2 fold change of peptide-encoding DNA abundance (4.5 h post-induction vs induction); higher = less antimicrobial activity (less host growth inhibition)
- study.conditions: time post-induction: 4.5 h; library: site-saturation at positions 5, 18, 19, 20
assay.endpoint: shrunken log2 fold change
Hey, just send me the number, nothing else.

1. RRIRGRPPRLPRPRPRPLAAPRP    1.91
2. RRIRVRPPRLPRPRPRPAGLPRP    0.192
3. RRIRWRPPRLPRPRPRPYEIPRP    -0.402

What does the data say about its shrunken log2 fold change? Entry: RRIRPRPPRLPRPRPRPAPCPRP 0.236

What does the data say about its shrunken log2 fold change? Entry: RRIRQRPPRLPRPRPRPWPQPRP -0.0188

What does the data say about its shrunken log2 fold change? Entry: RRIRQRPPRLPRPRPRPYYEPRP -0.172

----------
Reported shrunken log2 fold change values for a set of sequences
- Tested on: Escherichia coli TOP10
- procedure.details: shrunken log2 fold change of peptide-encoding DNA abundance (4.5 h post-induction vs induction); higher = less antimicrobial activity (less host growth inhibition)
- study.conditions: time post-induction: 4.5 h; library: site-saturation at positions 5, 18, 19, 20
Hey, just send me the number, nothing else.

1) RRIRMRPPRLPRPRPRPNQTPRP    -0.0789

Now, please, on to the next sequence.
What does the data say about its shrunken log2 fold change? Entry: RRIRHRPPRLPRPRPRPEPQPRP 0.39

----------
- Test system: Escherichia coli TOP10
- procedure.details: shrunken log2 fold change of peptide-encoding DNA abundance (4.5 h post-induction vs induction); higher = less antimicrobial activity (less host growth inhibition)
- study.conditions: time post-induction: 4.5 h; library: site-saturation at positions 5, 18, 19, 20
just bin them by shrunken log2 fold change: class A (below -0.6), class B (-0.6 to below 0.3), class C (0.3 or more)

# count of solved cases: 5
1) RRIRARPPRLPRPRPRPCAQPRP    class C
2) RRIRSRPPRLPRPRPRPMYVPRP    class A
3) RRIRLRPPRLPRPRPRPINDPRP    class B
4) RRIRRRPPRLPRPRPRPIPRPRP    class C
5) RRIRYRPPRLPRPRPRPLMDPRP    class B

Which shrunken log2 fold change category applies to RRIRYRPPRLPRPRPRPKVHPRP here? class A

Which shrunken log2 fold change category applies to RRIRHRPPRLPRPRPRPTQLPRP here? class B

Which shrunken log2 fold change category applies to RRIRRRPPRLPRPRPRPRCEPRP here? class C

----------
- Tested on: Escherichia coli TOP10
- procedure.details: shrunken log2 fold change of peptide-encoding DNA abundance (4.5 h post-induction vs induction); higher = less antimicrobial activity (less host growth inhibition)
- study.conditions: time post-induction: 4.5 h; library: site-saturation at positions 5, 18, 19, 20
assay.endpoint: shrunken log2 fold change
Hey, just send me the number, nothing else.

1. RRIRTRPPRLPRPRPRPVSWPRP    0.522
2. RRIRWRPPRLPRPRPRPVHHPRP    -0.0507

What does the data say about its shrunken log2 fold change? Entry: RRIRFRPPRLPRPRPRPPKNPRP 0.541

What does the data say about its shrunken log2 fold change? Entry: RRIRERPPRLPRPRPRPREYPRP -0.242

What does the data say about its shrunken log2 fold change? Entry: RRIRGRPPRLPRPRPRPPCVPRP 1.15

What does the data say about its shrunken log2 fold change? Entry: RRIRSRPPRLPRPRPRPADPPRP 0.0724

----------
- Tested on: Escherichia coli TOP10
- procedure.details: shrunken log2 fold change of peptide-encoding DNA abundance (4.5 h post-induction vs induction); higher = less antimicrobial activity (less host growth inhibition)
- study.conditions: time post-induction: 4.5 h; library: site-saturation at positions 5, 18, 19, 20
assay.endpoint: shrunken log2 fold change
Hey, just send me the number, nothing else.

# count of solved cases: 5
1. RRIRERPPRLPRPRPRPFIYPRP    -0.0998
2. RRIRWRPPRLPRPRPRPDQYPRP    -0.154
3. RRIRGRPPRLPRPRPRPTYDPRP    0.361
4. RRIRARPPRLPRPRPRPFGIPRP    0.0411
5. RRIRCRPPRLPRPRPRPYFGPRP    -0.0436

What does the data say about its shrunken log2 fold change? Entry: RRIRKRPPRLPRPRPRPYNSPRP -0.49

What does the data say about its shrunken log2 fold change? Entry: RRIRSRPPRLPRPRPRPDYSPRP -0.464

What does the data say about its shrunken log2 fold change? Entry: RRIRDRPPRLPRPRPRPRPAPRP 0.966

----------
Reported shrunken log2 fold change values for a set of sequences
- Tested on: Escherichia coli TOP10
- procedure.details: shrunken log2 fold change of peptide-encoding DNA abundance (4.5 h post-induction vs induction); higher = less antimicrobial activity (less host growth inhibition)
- study.conditions: time post-induction: 4.5 h; library: site-saturation at positions 5, 18, 19, 20
Hey, just send me the number, nothing else.

# count of solved cases: 6
1) RRIRVRPPRLPRPRPRPTQNPRP    0.693
2) RRIRLRPPRLPRPRPRPPALPRP    0.696
3) RRIRARPPRLPRPRPRPKHMPRP    -0.158
4) RRIRDRPPRLPRPRPRPPIIPRP    -0.0464
5) RRIRSRPPRLPRPRPRPDYEPRP    -0.221
6) RRIRARPPRLPRPRPRPYAFPRP    -0.125

# value lookup — system Escherichia coli TOP10, readout shrunken log2 fold change, item RRIRSRPPRLPRPRPRPKYQPRP -0.157

# value lookup — system Escherichia coli TOP10, readout shrunken log2 fold change, item RRIRSRPPRLPRPRPRPNYTPRP -0.479

# value lookup — system Escherichia coli TOP10, readout shrunken log2 fold change, item RRIRARPPRLPRPRPRPHCWPRP 0.17

# value lookup — system Escherichia coli TOP10, readout shrunken log2 fold change, item RRIRCRPPRLPRPRPRPASRPRP 0.096

# value lookup — system Escherichia coli TOP10, readout shrunken log2 fold change, item RRIRTRPPRLPRPRPRPTHPPRP 0.312

# value lookup — system Escherichia coli TOP10, readout shrunken log2 fold change, item RRIRFRPPRLPRPRPRPQRDPRP 0.218

----------
Reported shrunken log2 fold change values for a set of sequences
- Test system: Escherichia coli TOP10
- procedure.details: shrunken log2 fold change of peptide-encoding DNA abundance (4.5 h post-induction vs induction); higher = less antimicrobial activity (less host growth inhibition)
- study.conditions: time post-induction: 4.5 h; library: site-saturation at positions 5, 18, 19, 20
Hey, just send me the number, nothing else.

1. RRIRMRPPRLPRPRPRPHCPPRP    -0.506
2. RRIRHRPPRLPRPRPRPYWHPRP    -0.666
3. RRIRPRPPRLPRPRPRPMRRPRP    0.537
4. RRIRFRPPRLPRPRPRPLYKPRP    -0.813
5. RRIRARPPRLPRPRPRPPAIPRP    0.382
6. RRIRLRPPRLPRPRPRPSKWPRP    -0.348
7. RRIRARPPRLPRPRPRPGNAPRP    0.73
8. RRIRRRPPRLPRPRPRPQMDPRP    -0.0632
9. RRIRTRPPRLPRPRPRPFSRPRP    0.0136
10. RRIRKRPPRLPRPRPRPDSQPRP    0.0697

Now, please, on to the next sequence.
What does the data say about its shrunken log2 fold change? Entry: RRIRFRPPRLPRPRPRPQQHPRP -0.38

----------
Reported shrunken log2 fold change values for a set of sequences
- System: Escherichia coli TOP10;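 also: peptides expressed intracellularly from a pBAD plasmid library in pooled LB shake-flask culture, induced with 0.3% L-arabinose, DNA abundance read by NGS, three biological replicates, DESeq2 with apeglm shrinkage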
- procedure.details: shrunken log2 fold change of peptide-encoding DNA abundance (4.5 h post-induction vs induction); higher = less antimicrobial activity (less host growth inhibition)
- study.conditions: time post-induction: 4.5 h; library: site-saturation at positions 5, 18, 19, 20

1) RRIRPRPPRLPRPRPRPRPNPRP    0.505
2) RRIRCRPPRLPRPRPRPWVNPRP    -0.19
3) RRIRMRPPRLPRPRPRPAFKPRP    -0.323

What does the data say about its shrunken log2 fold change? Entry: RRIRYRPPRLPRPRPRPHNKPRP -0.718

What does the data say about its shrunken log2 fold change? Entry: RRIRDRPPRLPRPRPRPFTIPRP -0.0247

What does the data say about its shrunken log2 fold change? Entry: RRIRQRPPRLPRPRPRPMHYPRP -0.276

What does the data say about its shrunken log2 fold change? Entry: RRIRPRPPRLPRPRPRPLVTPRP -0.302

What does the data say about its shrunken log2 fold change? Entry: RRIRLRPPRLPRPRPRPQNPPRP -0.263

What does the data say about its shrunken log2 fold change? Entry: RRIRIRPPRLPRPRPRPNCIPRP -0.408

What does the data say about its shrunken log2 fold change? Entry: RRIRLRPPRLPRPRPRPEEHPRP 0.00515

What does the data say about its shrunken log2 fold change? Entry: RRIRWRPPRLPRPRPRPGVRPRP 0.304

What does the data say about its shrunken log2 fold change? Entry: RRIRNRPPRLPRPRPRPDCHPRP 0.081

What does the data say about its shrunken log2 fold change? Entry: RRIRHRPPRLPRPRPRPCSVPRP -0.00861

What does the data say about its shrunken log2 fold change? Entry: RRIRRRPPRLPRPRPRPFVTPRP -0.0614

What does the data say about its shrunken log2 fold change? Entry: RRIRRRPPRLPRPRPRPSIPPRP -0.0753

What does the data say about its shrunken log2 fold change? Entry: RRIRMRPPRLPRPRPRPTQEPRP 0.433

What does the data say about its shrunken log2 fold change? Entry: RRIRLRPPRLPRPRPRPGVKPRP 0.108
